- study.system: T1, cynomolgus serum albumin (cynomolgus)
- T1 construct: also called CSA; cyno serum albumin
- T1 sequence (A2V9Z4 25-608): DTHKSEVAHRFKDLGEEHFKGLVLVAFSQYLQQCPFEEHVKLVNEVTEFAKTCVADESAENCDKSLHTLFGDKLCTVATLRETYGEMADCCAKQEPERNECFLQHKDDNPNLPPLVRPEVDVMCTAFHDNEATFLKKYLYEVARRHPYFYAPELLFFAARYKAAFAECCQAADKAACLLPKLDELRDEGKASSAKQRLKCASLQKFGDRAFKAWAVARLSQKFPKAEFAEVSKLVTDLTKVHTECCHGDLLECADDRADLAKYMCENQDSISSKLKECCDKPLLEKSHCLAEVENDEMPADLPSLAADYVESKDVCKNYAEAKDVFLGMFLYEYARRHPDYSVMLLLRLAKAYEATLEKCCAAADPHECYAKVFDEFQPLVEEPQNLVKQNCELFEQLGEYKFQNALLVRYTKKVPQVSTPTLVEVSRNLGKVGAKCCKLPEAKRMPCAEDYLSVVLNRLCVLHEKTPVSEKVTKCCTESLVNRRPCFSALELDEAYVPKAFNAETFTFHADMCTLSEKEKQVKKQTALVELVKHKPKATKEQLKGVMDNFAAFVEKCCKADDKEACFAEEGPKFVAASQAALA
- assay.name: SPR (Biacore T200), albumin amine-coupled to CM5, Affimer analyte, pH 7.4
attribute.measured: kon (M⁻¹ s⁻¹)
Reply with just the number (in M⁻¹ s⁻¹).

INPUT: Note kon for the binder shown: HSA-36 (designed binder) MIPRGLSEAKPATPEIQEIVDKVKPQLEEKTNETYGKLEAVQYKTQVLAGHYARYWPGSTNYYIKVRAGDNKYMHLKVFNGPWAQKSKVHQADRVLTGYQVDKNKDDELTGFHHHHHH
OUTPUT: 106000

INPUT: Output measured kon for this item: HSA-18 (designed binder, also called HSA-18 monomer) MIPRGLSEAKPATPEIQEIVDKVKPQLEEKTNETYGKLEAVQYKTQVLADWWQAKWPHSTNYYIKVRAGDNKYMHLKVFNGPYKVHQSSGGADRVLTGYQVDKNKDDELTGFHHHHHH
OUTPUT: 48300

INPUT: Specify measured kon for HSA-41 (designed binder, also called HSA-41 parent; HSA-41 AH parent) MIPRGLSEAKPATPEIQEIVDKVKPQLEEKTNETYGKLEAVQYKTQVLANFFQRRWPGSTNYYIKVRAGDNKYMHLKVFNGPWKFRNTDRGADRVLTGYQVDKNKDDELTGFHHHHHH .
OUTPUT: 488000

Next:
INPUT: Name the recorded kon of the item HSA-20 (designed binder) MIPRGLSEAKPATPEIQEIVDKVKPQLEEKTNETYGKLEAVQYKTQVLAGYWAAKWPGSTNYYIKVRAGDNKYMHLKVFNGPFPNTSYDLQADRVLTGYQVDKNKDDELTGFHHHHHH in your answer.
OUTPUT: 47600
